Listed here are compounds together with their documented GI50.
System: SK-OV-3
Experiment: NCI tumour cell line growth inhibition, 48 h
Activity calls are given as the source filed them. Cut-off read from the data, not from the text of the source: active = GI50 up to about 1.1 µM and inactive = higher.

CN(C)CCCNc1ccc2nnn3c4ccc(OC(=O)c5ccc([N+](=O)[O-])cc5)cc4c(=O)c1c23 has a reported GI50 of 6.98 µM (inactive)

CC(=O)OC[C@@]1(C)[C@@H]2[C@@H]3[C@@]4(CO[C@]3(C)C(=O)[C@@]3(OC(C)=O)C[C@H](C)[C@H](OC(C)=O)[C@@H]3[C@H]4OC(C)=O)[C@H](OC(=O)c3ccccc3)C[C@@H]21 has a reported GI50 of > 100 µM (inactive)

O=C(O)c1nn[nH]c1S has a reported GI50 of > 100 µM (inactive)

Cc1cc(C)nc(NC(=S)Nc2cccc(Cl)c2)c1 has a reported GI50 of > 100 µM (inactive)

O=C(O)c1ccc(CNCc2ccccc2)cc1 has a reported GI50 of > 100 µM (inactive)

O=c1/c(=C/c2ccc(Cl)cc2Cl)sc2nc3ccccc3n12 has a reported GI50 of > 100 µM (inactive)

Cc1cc(O)c2c(c1)CC(O)C1=C2C(=O)c2c(O)ccc(OC3CC(O)C(OC4CC(OC5CCC(O)C(C)O5)C(O)C(C)O4)C(C)O3)c2C1=O (stereo not drawn) has a reported GI50 of 2.33 µM (inactive)

CCN(CC)CC(O)C1CCC(c2ccccc2)CC1 (stereo not drawn) has a reported GI50 of 16.1 µM (inactive)
